Reported EC50 by item:
Molecular target: Insulin-degrading enzyme (Homo sapiens, UniProt P14735)
Sequence (P14735 whole entry): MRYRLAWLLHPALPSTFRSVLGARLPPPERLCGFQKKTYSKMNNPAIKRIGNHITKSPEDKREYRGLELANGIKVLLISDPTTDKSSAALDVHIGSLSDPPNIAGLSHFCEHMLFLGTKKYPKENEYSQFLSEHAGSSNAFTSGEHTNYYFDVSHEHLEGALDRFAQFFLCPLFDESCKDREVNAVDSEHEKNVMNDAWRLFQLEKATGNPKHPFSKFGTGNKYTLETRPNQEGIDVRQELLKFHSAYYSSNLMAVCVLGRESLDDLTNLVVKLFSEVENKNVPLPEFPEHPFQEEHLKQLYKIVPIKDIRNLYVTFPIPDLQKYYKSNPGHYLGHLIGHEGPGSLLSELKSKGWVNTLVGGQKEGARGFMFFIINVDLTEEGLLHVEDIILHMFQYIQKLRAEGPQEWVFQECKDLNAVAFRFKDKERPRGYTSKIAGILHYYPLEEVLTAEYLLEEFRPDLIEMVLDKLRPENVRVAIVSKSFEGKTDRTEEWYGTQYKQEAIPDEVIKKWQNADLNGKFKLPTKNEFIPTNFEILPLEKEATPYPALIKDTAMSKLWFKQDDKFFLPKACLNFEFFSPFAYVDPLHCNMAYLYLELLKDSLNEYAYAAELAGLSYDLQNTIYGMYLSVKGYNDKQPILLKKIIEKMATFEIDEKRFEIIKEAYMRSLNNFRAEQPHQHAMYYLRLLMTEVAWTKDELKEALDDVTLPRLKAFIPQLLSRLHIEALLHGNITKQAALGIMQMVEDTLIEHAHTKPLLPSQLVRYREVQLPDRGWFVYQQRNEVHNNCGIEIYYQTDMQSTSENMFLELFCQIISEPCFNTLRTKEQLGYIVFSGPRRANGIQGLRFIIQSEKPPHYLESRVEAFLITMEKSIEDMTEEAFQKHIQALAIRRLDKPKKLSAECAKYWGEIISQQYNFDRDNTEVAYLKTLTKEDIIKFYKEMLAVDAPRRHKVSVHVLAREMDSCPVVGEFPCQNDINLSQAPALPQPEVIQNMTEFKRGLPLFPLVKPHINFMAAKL
Experiment: activators of recombinant IDE enzyme, dose response, counter-screen for IDE activator project, biochemical, fluorescence polarization (AID 588681)
Calls of active or inactive are those of the source. Cut-off read from the data, not from the text of the source: active = EC50 of 10 µM or less and inactive = more.

Here's what some known entries look like.
INSERT INTO assay_data (molecule, reported_value) VALUES
  ('Cc1[nH]c(=O)[nH]c1C(=O)CCCCC(=O)O', '16.9 µM (inactive)'),
  ('N#CC(C#N)=C1C=C2C=C(N3CCCCCC3)CCC2CC1 (centres undefined)', '> 54.7 µM (inactive)'),
  ('COc1ccc(OCc2n(CC(=O)OC3CC(C)CCC3C(C)C)c3ccccc3[n+]2C)cc1.[Cl-] (centres undefined)', '> 54.7 µM (inactive)');

QUERY: Returns the measured EC50 for the input molecule. Input: O=C1C=C(c2cccc3c2sc2ccccc23)C[C@@H](c2ccc(Cl)cc2)C1
RESULT: > 54.7 µM (inactive)
